# PROTOCOL DETAILS: Pharmacokinetic evaluation after intravenous or gavage administration in monkeys
# Assay type: in vivo
# CONDITION CONTEXT: monkey, plasma, po, i.g group, 5 mg/kg
Form field: Tmax (one value per entry).
Please reply with the bare figure in h and do not write the unit itself.

NC(=O)[C@@H]1C[C@H](F)CN1Cc1ccc(OCc2cccc(F)c2)cc1F [Example 3]; 1

Moving on to the next molecule.
// sample NC(=O)[C@@H]1C[C@H](F)CN1Cc1ccc(OCc2cccc(F)c2)cc1 [Example 1] , its Tmax was 1

---

# PROTOCOL DETAILS: Pharmacokinetic evaluation after intravenous or gavage administration in monkeys
# Assay type: in vivo
# CONDITION CONTEXT: monkey, plasma, po, i.g group, 5 mg/kg
READOUT TYPE: MRT inf

NC(=O)[C@@H]1C[C@H](F)CN1Cc1ccc(OCc2cccc(F)c2)cc1F; 5.02 h

Moving on to the next compound.
// sample NC(=O)[C@@H]1C[C@H](F)CN1Cc1ccc(OCc2cccc(F)c2)cc1 , its MRT inf was 4.33 h
